# Tested on: KM12 colon
# test_description: NCI tumour cell line growth inhibition, 48 h
metric: TGI

Use the examples below as a reference point.
In [3]: df
Out[3]:
                                   compound    result
0         N=c1sc(N2CCOCC2)nn1CC(=O)c1ccccc1  > 100 µM
1  CC(C)=NO.CC(C)=NO.CC(C)=NO.CC(C)=NO.[Ti]  > 100 µM
2  COc1ccc(S(=O)(=O)NCCCNc2nccc(-c3c(-c4ccc(F)cc4)nc4sccn34)n2)cc1  > 100 µM
3           Brc1ccc2c(c1)-c1ccccc1C1=NCCN12   11.3 µM
4  COc1ccc(/[N+]([O-])=C/c2ccccc2OC(=S)S)cc1  > 100 µM

Go through the list and state TGI for each entry.
1. CN(C)C(=O)c1cc2cnc(Nc3ccc(N4CCNCC4)cn3)nc2n1C1CCCC1
2. CN(C)c1ccc(/C=C2\CCCCCC2=O)cc1
3. CCOC(=O)c1ccc(-c2cccs2)[nH]1
4. ClCc1ccc(Cn2cnc3nc(Cl)nc(Cl)c32)cc1
5. OCCn1c(-c2ccncc2)c(-c2ccc(F)cc2)c2ncccc21
6. CC(C)[C@H](NC(=O)OCc1ccccc1)C(=O)N[C@H](/C=C/C(=O)OC(C)(C)C)CO
7. CCCCCCCCCCCC1=C(O)C(=O)C=C(O)C1=O
8. O=NNc1nc(-c2ccccn2)nc2ccccc12

Result:
["32.9 µM", "> 100 µM", "> 100 µM", "1.48 µM", "> 25 µM", "> 100 µM", "31.6 µM", "> 100 µM"]

Parameter requested: TGI. Apply to each item below.
1. CN(C)c1ccc(/C=C2\Cc3ccccc3C2=O)cc1Br
2. Nc1nc2c(c(-c3ccc(F)cc3)n1)COC/C2=C\c1ccc(F)cc1

Result:
1: > 100 µM; 2: 29 µM

Provide TGI values for the following items, in order.
1. CCOC(=O)C1(NC(=O)OC(C)(C)C)CCc2[nH]oc(=O)c2C1 (centres undefined)
2. O=C(COC(=O)[C@H](C[Se][Se]C[C@H](NC(=O)c1ccc(Br)cc1F)C(=O)OCC(=O)c1ccc(F)cc1)NC(=O)c1ccc(Br)cc1F)c1ccc(F)cc1

Result:
1. > 100 µM
2. 0.793 µM

# return TGI for each item in the list
1. O=C1NC2(CCCCC2)C2=C1CCCCC2
2. O=C1C(=O)c2c(ccc3ccccc23)-c2ccccc21

Result:
1. > 100 µM
2. 2.99 µM

* * *

# Test system: NCI-H23 lung
# test_description: NCI tumour cell line growth inhibition, 48 h
metric: TGI

In [3]: df
Out[3]:
                              line_notation  metric    result
0  N#Cc1c(N)nc(N2CCOCC2)c(C#N)c1-c1ccc(Cl)cc1Cl     TGI   48.4 µM
1            C/C(=C\CNc1ncnc2c1ncn2CCC#N)CO     TGI  > 100 µM

For each of the compounds below, note its TGI.
1. CC(C)=C[C@@H]1C[C@H](C)[C@H]2CC[C@H](C)[C@H]3C(=O)C(O)=C(C)C(=O)[C@]123
2. COc1ccc(Sc2ccccc2[N+](=O)[O-])cc1
3. FC(F)(Sc1nc2ccccc2[nH]1)c1nc2ccccc2o1
4. CCN(CC)CCCNc1nnc(C)c2[nH]c3ccccc3c12
5. COc1cccc2c(Nc3ccc(C(=O)NCCN4CCNCC4)cc3)cc(-c3ccccc3)nc12

Result:
["> 100 µM", "> 100 µM", "> 100 µM", "38.8 µM", "> 100 µM"]

Problem: Recorded TGI for CC(=O)CC(=O)N1CCOC1=O , please?
Result: > 10 µM

* * *

# Test system: MCF7 breast
# test_description: NCI tumour cell line growth inhibition, 48 h; in the data active = GI50 below about 0.43 µM; inactive = the rest
Assign a class; possible classes are active, inactive

Some solved cases for reference:
>>> print(df.to_string())
                                   compound          tgt     group
0  COc1ccc(S(=O)(=O)NCCCNc2nccc(-c3c(-c4ccc(F)cc4)nc4sccn34)n2)cc1  MCF7 breast  inactive
1  COC(=O)C(NC(=O)c1ccccc1)c1ccc(OC)c(I)c1 (configuration not stated)  MCF7 breast  inactive
2  O=C(Nc1cccc(C(F)(F)F)c1)Nc1cc(S(=O)(=O)NC2CC2)ccc1-c1ccsc1  MCF7 breast  inactive

Problem: Recorded test call requested for CS(=O)(=O)Nc1ccc(Nc2c3ccccc3nc3cc(Cl)ccc23)cc1
Result: active

Problem: Can you look up the reported call for N#Cc1c(N/N=C/c2c(Cl)cccc2Cl)nc(N)nc1N1CCCC1 for me?
Result: inactive

Problem: Which result was noted for this compound in the test: CC(=O)Nc1ccc(C(=O)COc2cccc(/C=C3\CCc4ccccc4C3=O)c2)cc1
Result: inactive

Problem: What was the test verdict on Cn1c(=O)c(Oc2ccc(F)cc2F)cc2cnc(NC3CCC(O)CC3)nc21 (configuration not stated) ?
Result: inactive

* * *

# Tested on: OVCAR-8 ovarian
# test_description: NCI tumour cell line growth inhibition, 48 h
metric: TGI

Some solved cases for reference:
In [3]: df
Out[3]:
                                   compound     result
0          O=C(CCc1ccccc1)NCCc1ccc(O)c(O)c1  > 85.6 µM
1  Cc1cccc2c1Oc1ncccc1C2NC(=O)CN(C)C (stereo not drawn)    > 10 µM

Below are some compounds; for each one, tell me its TGI.
1. COc1cccc2c(Nc3ccc(C(=O)NCCN4CCNCC4)cc3)cc(-c3ccccc3)nc12
2. Nc1ccc(N)c2c1C(=O)c1cccc([N+](=O)[O-])c1C2=O
3. COc1cc([C@H]2c3cc(O)c(OC)cc3C[C@]3(O)[C@@H]2CO[C@@H]3O)ccc1O
4. O=C(NCc1cccnc1)c1ccc([N+](=O)[O-])o1
5. CCNc1nc(-c2ccc(Cl)c(OC)c2)c(-c2ccnc(NCCNS(=O)(=O)c3ccc(Cl)cc3)n2)s1

Result:
["> 100 µM", "19.7 µM", "> 100 µM", "14.5 µM", "> 100 µM"]

The following compounds each have a reported value; give each one's TGI.
1. OCCn1c(-c2ccncc2)c(-c2ccc(F)cc2)c2ncccc21
2. COc1ccc(S(=O)(=O)NCCCNc2nccc(-c3c(-c4ccc(F)cc4)nc4sccn34)n2)cc1
3. COC(=O)C(NC(=O)c1ccccc1)c1ccc(OC)c(I)c1 (stereo not drawn)
4. O=C(O)C12C3C4C1C1C2C3C41I (stereo not drawn)
5. CC(=O)OCC1OC(OC(C)=O)C(NC#N)C(OC(C)=O)C1OC(C)=O (stereo not drawn)
6. CCC(=C(c1ccc(OCCN(CC)CC)cc1)c1ccc(OCCN(CC)CC)cc1)c1ccc(Cl)cc1

Result:
1: > 25 µM; 2: > 100 µM; 3: > 100 µM; 4: > 100 µM; 5: > 100 µM; 6: 1.51 µM

* * *

# Test system: SF-539 CNS
# test_description: NCI tumour cell line growth inhibition, 48 h
Give TGI for every item shown.

Here's what some known entries look like.
In [3]: df
Out[3]:
                                   molecule  metric     result
0                         Cc1nnc(N)s/c1=N/O     TGI   > 100 µM
1  O=[N+]([O-])c1cccc2c1[nH]c1c(-c3ccccc3)nccc12     TGI    > 69 µM
2  COc1ccc(-c2cc(-c3ccc(Nc4ccnc5cc(C(F)(F)F)ccc45)cc3)nc(N)c2C#N)c2ccccc12     TGI   > 100 µM
3  COc1cc(/C=C/C(=O)c2c(-c3ccc(Cl)cc3)nc3sc(C)nn23)cc(OC)c1OC     TGI   > 100 µM
4          O=C(CCc1ccccc1)NCCc1ccc(O)c(O)c1     TGI  > 87.5 µM
5  O=C(O)C12C3C4C1C1C2C3C41I (stereo not drawn)     TGI   > 100 µM
6                     CC(=O)CC(=O)N1CCOC1=O     TGI    > 10 µM
7  COc1ccc(N=C(SSC(=Nc2ccc(OC)cc2)c2ccc([N+](=O)[O-])o2)c2ccc([N+](=O)[O-])o2)cc1     TGI  > 21.9 µM

For the 3 molecules below, give their TGI values.
1. C/C(=N\NC(=O)c1ccncc1)c1ccccc1O
2. CCOC(=O)c1ccc(-c2cccs2)[nH]1
3. Cc1cccc2c1Oc1ncccc1C2NC(=O)CN(C)C (stereo not drawn)

Result:
1. > 100 µM
2. > 100 µM
3. > 10 µM

// for each molecule in input: emit TGI
1. Nc1nc2c(ccc3ccccc32)[nH]1
2. Nc1nc(Nc2cc(F)c(Cl)c(F)c2)cc(=O)[nH]1

Result:
1. > 10 µM
2. > 100 µM
